# pIC50 against NS3 (Hepatitis C virus, UniProt A3EZJ3), merged from multiple literature sources
The meaning of pIC50 here: minus log10 of the concentration in molar units.

Examples from the recorded data:
1. C=CC[C@H](NC(=O)[C@@H]1C[C@@H](CCCc2cccc3ccccc23)c2c(Cl)nc(NCC(C)C)c(=O)n21)B1OC2CC3CC(C3(C)C)[C@@]2(C)O1 (stereo partly drawn)	6.77
2. CC(C)C[C@H](NC(=O)C1Cc2ccc(OCC(=O)O)cc2N1)C(=O)NC(CC(F)F)C(=O)C(=O)O (single isomer, unassigned; diastereomer 2)	4.57
3. CC(=O)N[C@H](C(=O)N[C@H](C(=O)N1CC(Oc2cc(-c3ccccc3)nc3ccccc23)CC1C(=O)NC1(C(=O)O)CC1)C(C)C)C1CCCCC1 (single isomer, unassigned)	6.43
4. CC[C@H](NC(=O)[C@@H]1C[C@@](C)(NC(=O)Nc2ccccc2Cl)c2ncc(NCc3cccc(C(F)(F)F)c3)c(=O)n21)B1OC2C3CC(C[C@]2(C)O1)C3(C)C (stereo partly drawn)	6.43
5. CC[C@H](NC(=O)[C@@H]1CCc2ncc(NCc3cccc(C(F)(F)F)c3)c(=O)n21)B1OC2C3CC(C[C@]2(C)O1)C3(C)C (stereo partly drawn)	5.15

Write down pIC50 measured for item C=CC[C@H](NC(=O)[C@@H]1C[C@@H](CCCc2cccc3ccccc23)c2c(Cl)nc(NCc3ccc(O)c(O)c3)c(=O)n21)B1OC2CC3CC(C3(C)C)[C@@]2(C)O1 (stereo partly drawn)
6.96

Write down pIC50 measured for item CC(C)C[C@H](NC(=O)C1Cc2ccccc2N1)C(=O)NC(CC(F)F)C(=O)C(=O)O (single isomer, unassigned; diastereomer 2)
4.30

====

# pIC50 against NS3 (Hepatitis C virus, UniProt A3EZJ3), merged from multiple literature sources
The meaning of pIC50 here: minus log10 of the concentration in molar units.

Examples from the recorded data:
1. CC[C@H](NC(=O)[C@@H]1C[C@@](C)(NC(=O)Nc2ccccc2C(=O)OC)c2ncc(NCc3cccc(C(F)(F)F)c3)c(=O)n21)B1OC2C3CC(C[C@]2(C)O1)C3(C)C (stereo partly specified)	7.10
2. CC[C@H](NC(=O)[C@@H]1C[C@@](C)(CC(=O)Nc2cccc3ccccc23)c2ncc(NCc3cccc(C(F)(F)F)c3)c(=O)n21)B1OC2C3CC(C[C@]2(C)O1)C3(C)C (stereo partly specified)	6.77
3. CC[C@H](C)[C@H](NC(=O)C(CC(=O)O)NC(=O)[C@H](C)NC(C)=O)C(=O)N[C@H](C(=O)N1CCC[C@H]1C(=O)N[C@@H](CS)C(=O)O)C(C)C (single isomer, unassigned)	3.70
4. CC[C@H](NC(=O)[C@H](CC1CCCCC1)NC(=O)[C@@H](NC(=O)[C@H](CC(C)C)NC(=O)c1cnccn1)[C@@H](C)CC)C(=O)C(=O)NCC(=O)NS(C)(=O)=O	4.60
5. C=CC[C@H](NC(=O)[C@@H]1C[C@@H](Cc2ccc(C)cc2)c2c(Cl)nc(NCc3cccc(C(F)(F)F)c3)c(=O)n21)B1OC2CC3CC(C3(C)C)[C@@]2(C)O1 (stereo partly specified)	7.22
6. CC[C@H](C)[C@H](NC(=O)C(CC(=O)O)NC(=O)CCC(=O)O)C(=O)N[C@H](C(=O)N1CCC[C@H]1C(=O)N[C@@H](CS)C(=O)O)C(C)C (single isomer, unassigned)	4.12
7. CC[C@H](NC(=O)[C@@H]1C[C@@](C)(CC(=O)Nc2ccccc2C(=O)NC)c2ncc(NCc3cccc(C(F)(F)F)c3)c(=O)n21)B1OC2C3CC(C[C@]2(C)O1)C3(C)C (stereo partly specified)	6.74
8. CC[C@H](NC(=O)[C@@H]1C[C@@H](CCCc2ccc3ccccc3c2)c2c(Cl)nc(NCc3cccc(C(F)(F)F)c3)c(=O)n21)B1OC2CC3CC(C3(C)C)[C@@]2(C)O1 (stereo partly specified)	7.70
9. CC[C@H](C)[C@H](NC(=O)[C@H](CC(C)C)NC(=O)c1cnccn1)C(=O)N[C@@H](CC1CCCCC1)C(=O)N[C@@H](CC(F)F)C(=O)C(=O)NCC(=O)NS(=O)(=O)c1cc(Cl)cc(S(N)(=O)=O)c1	7.30
10. CC(=O)N[C@H](C(=O)N[C@H](C(=O)N1CC(Oc2cccc(-c3cccc([N+](=O)[O-])c3)c2)CC1C(=O)NC1(C(=O)O)CC1)C(C)C)C1CCCCC1 (single isomer, unassigned)	5.40

Param request: pIC50 | system NS3 (Hepatitis C virus, UniProt A3EZJ3) | item C=CC[C@H](NC(=O)[C@@H]1C[C@@H](Cc2ccc(OC)cc2)c2c(Cl)nc(NCc3cccc(C(F)(F)F)c3)c(=O)n21)B1OC2CC3CC(C3(C)C)[C@@]2(C)O1 (stereo partly specified)
7.30

Param request: pIC50 | system NS3 (Hepatitis C virus, UniProt A3EZJ3) | item C=CC[C@H](NC(=O)[C@@H]1C[C@@H](CCCc2ccccc2)c2c(Cl)nc(NCc3cccc(C(F)(F)F)c3)c(=O)n21)B1OC2CC3CC(C3(C)C)[C@@]2(C)O1 (stereo partly specified)
7.22

Param request: pIC50 | system NS3 (Hepatitis C virus, UniProt A3EZJ3) | item CC(=O)N[C@H](C(=O)N[C@H](C(=O)N1CC(Oc2cccc(Br)c2)CC1C(=O)NC1(C(=O)O)CC1)C(C)C)C1CCCCC1 (single isomer, unassigned)
4.28
